Measured cell viability of individual entries
Tested on: P12-Ichikawa
protocol.description: cell viability relative to DMSO control; higher = less cytotoxic
condition.parameters: HPLM + 10% dialyzed FBS; 48 h; 0.0211 µM
The response must be a number in % with no trailing unit.

The following compounds have reported results that may help.
C[C@@H]1CN(Cc2ccc(F)cc2)[C@@H](C)CN1C(=O)c1cc2c(C(=O)C(=O)N(C)C)cn(C)c2cc1Cl ... 128
CCOc1cc2ncc(C#N)c(Nc3ccc(F)c(Cl)c3)c2cc1NC(=O)/C=C/CN(C)C ... 122
CN(C)c1ccc2nc3ccc(N(C)C)cc3[s+]c2c1 ... 105

Q: Request the reported cell viability associated with "CCC[S+](=O)([O-])Nc1ccc(F)c(C(=O)c2c[nH]c3ncc(Cl)cc23)c1F"
Result: 119

Q: Request the reported cell viability associated with "COc1cc(Nc2c(C#N)cnc3cc(OCCCN4CCN(C)CC4)c(OC)cc23)c(Cl)cc1Cl"
Result: 110

Q: Request the reported cell viability associated with "N#Cc1ccc(Oc2ccc3c(c2)COB3O)cc1"
Result: 90.6

Q: Request the reported cell viability associated with "COc1cc2ncn(-c3cc(OCc4ccccc4[S+](C)(=O)[O-])c(C#N)s3)c2cc1OC"
Result: 94

Q: Request the reported cell viability associated with "O=[N+]([O-])c1ncc[nH]1"
Result: 83.4

Q: Request the reported cell viability associated with "OC1=CC=C(C=C1)\C2=C\OC3=C(C(=CC(=C3)O)O)C2=O"
Result: 118

Q: Request the reported cell viability associated with "NC(=O)[C@H]1CCS[C@@H]2C[C@]3(CCCN3C(=O)Cc3ccc(NC(=O)COc4ccc(Cl)cc4Cl)cc3)C(=O)N12"
Result: 110

Q: Request the reported cell viability associated with "CC[S+](=O)([O-])Nc1ccc2c(c1)/C(=C(/Nc1ccc(CN3CCCCC3)cc1)c1ccccc1)C(=O)N2"
Result: 109

Q: Request the reported cell viability associated with "N\C1=N\C2=C(N=C[N]2COCCO)C(=O)N1"
Result: 107

Q: Request the reported cell viability associated with "C[C@]12Cc3cn[nH]c3C[C@@H]1CC[C@@H]1[C@@H]2CC[C@@]2(C)[C@H]1CC[C@]2(C)O"
Result: 113

Q: Request the reported cell viability associated with "COc1cc([C@@H]2c3cc4c(cc3[C@H](O)[C@H]3COC(=O)[C@@H]23)OCO4)cc(OC)c1OC"
Result: 104

Q: Request the reported cell viability associated with CCOC(=O)C(C#N)C\1C2=CC(=CC=C2O\C(=C1C(=O)OCC)N)Br (stereo not drawn)
Result: 92.8

Q: Request the reported cell viability associated with "[O-]C(=O)C/1=N/C(=O)NC(=O)N1"
Result: 93.3

Q: Request the reported cell viability associated with "Cc1ccc([N+](=O)[O-])cc1[S+](=O)([O-])N(C)/N=C/c1cnc2ccc(Br)cn12"
Result: 118

Q: Request the reported cell viability associated with "CC[C@]12CC[C@H]3[C@@H](CCC/4=C/C(=O)CC[C@H]34)[C@@H]1CC[C@@]2(O)C#C"
Result: 87.2

====

Test system: NOMO1
protocol.description: cell viability relative to DMSO control; higher = less cytotoxic
condition.parameters: RPMI 5 mM glucose + 10% dialyzed FBS; 48 h; 1.71 µM
Just a reminder that ties go to NOT MET: only cell viability strictly below 90% counts as MET.

The following compounds have reported results that may help.
CC[S+](=O)([O-])Nc1ccc2c(c1)/C(=C(/Nc1ccc(CN3CCCCC3)cc1)c1ccccc1)C(=O)N2 ... MET
CCN1\C=C(\C(O)=O)C(=O)C2=C1N=C(N3CCNCC3)C(=C2)F ... MET
C/C(=N\NC(=S)N1CCC1)c1ccccn1 ... MET
Cc1c(-c2cccc3c(CCCOc4cccc5ccccc45)c(C(=O)O)n(Cc4cccnc4)c23)c(COc2ccc(N3CCN([S+](=O)([O-])N(C)C)CC3)cc2)nn1C ... MET

Q: Please determine if CCOC(=O)C(C#N)C\1C2=CC(=CC=C2O\C(=C1C(=O)OCC)N)Br (configuration not stated) is below 90% in terms of cell viability.
Result: NOT MET

Q: Please determine if "COc1cc([C@@H]2c3cc4c(cc3[C@H](O)[C@H]3COC(=O)[C@@H]23)OCO4)cc(OC)c1OC" is below 90% in terms of cell viability.
Result: MET

Q: Please determine if O=C(O)CCCCC(CCSCc1ccccc1)SCc1ccccc1 (configuration not stated) is below 90% in terms of cell viability.
Result: NOT MET

Q: Please determine if "OC[C@H]1O[C@H](C[C@@H]1O)N2\C=C(F)/C(=O)NC2=O" is below 90% in terms of cell viability.
Result: MET

Q: Please determine if O=C(CS(=O)Cc1ccco1)NC/C=C\COc1cc(CN2CCCCC2)ccn1 (configuration not stated) is below 90% in terms of cell viability.
Result: NOT MET

Q: Please determine if "CCC[S+](=O)([O-])Nc1ccc(F)c(C(=O)c2c[nH]c3ncc(Cl)cc23)c1F" is below 90% in terms of cell viability.
Result: NOT MET

Q: Please determine if "NC(=O)Nc1sc(-c2ccc(F)cc2)cc1C(N)=O" is below 90% in terms of cell viability.
Result: MET

Q: Please determine if "c1ccc2c(Cc3c[nH]c4ccccc34)c[nH]c2c1" is below 90% in terms of cell viability.
Result: NOT MET

Q: Please determine if "C[C@@H]1CN(Cc2ccc(F)cc2)[C@@H](C)CN1C(=O)c1cc2c(C(=O)C(=O)N(C)C)cn(C)c2cc1Cl" is below 90% in terms of cell viability.
Result: NOT MET

Q: Please determine if "O=C(Nc1nnc(-c2ccco2)o1)c1cc(-c2ccccc2)nc2ccccc12" is below 90% in terms of cell viability.
Result: NOT MET

Q: Please determine if "Cc1cn([C@H]2C=C[C@@H](CO)O2)c(=O)[nH]c1=O" is below 90% in terms of cell viability.
Result: NOT MET

Q: Please determine if N[S+](=O)([O-])c1cc2c(cc1Cl)NC(C(Cl)Cl)N[S+]2(=O)[O-] (configuration not stated) is below 90% in terms of cell viability.
Result: NOT MET

The values you see were collected from the supplement of paper PMC11451515.
